All figures here come from patent US11866450B2.

Overview of recorded EC50 for various compounds
Biological target: CFTR-mediated chloride transport (Homo sapiens)
Details: enteroid cells incubated with test compound 18-24 hours; acute 10 μM forskolin and 300 nM Compound III

Reference set (3 entries):
COMPOUND	EC50
CC1(C)C[C@@H]2CCCNc3cccc(n3)S(=O)(=O)NC(=O)c3ccc(N4CCN(C5CCCCC5)C4=O)nc3N1C2	< 1000 nM
CC(C)(C)CCN1CCN(c2ccc3c(n2)N2C(CCCNc4cccc(n4)S(=O)(=O)NC3=O)CCC2(C)C)C1=O (stereo not drawn)	> 3000 nM
CC1(C)C[C@@H]2CCCNc3cccc(n3)S(=O)(=O)NC(=O)c3ccc(N4CCN(CC(C)(C)C(F)(F)F)C4=O)nc3N1C2	< 1000 nM

Reported EC50 of "CC1(C)C[C@@H]2CCCNc3ccc(O)c(n3)S(=O)(=O)NC(=O)c3ccc(-n4ccc(OCCCC5(C(F)(F)F)CC5)n4)nc3N1C2" : < 1000 nM

Reported EC50 of CC1(C)CC2CCCNc3cccc(n3)S(=N)(=O)NC(=O)c3ccc(-n4ccc(OCCC5(C(F)(F)F)CC5)n4)nc3N1C2 (stereo not drawn) [Compound 262] : < 1000 nM

Reported EC50 of CC1(C)CC2CCNc3cccc(n3)S(=O)(=O)NC(=O)c3ccc(-n4ccc(OCC5(C(F)(F)F)CC5)n4)nc3N1C2 (stereo not drawn) : < 1000 nM

====

Target: CFTR-mediated chloride transport (Homo sapiens)
Type: cell-based
Settings: enteroid cells incubated with test compound 18-24 hours; acute 10 μM forskolin and 300 nM Compound III; % of chloride transport with 3 μM Compound A, 3 μM Compound II and 300 nM acute Compound III triple combination control
PROPERTY: Max. Activity

Reference set (5 entries):
COMPOUND	Max. Activity
CC1(C)C[C@@H]2CCCNc3cccc(n3)S(=O)(=O)NC(=O)c3ccc(-n4ccc(OCCC5(C(F)(F)F)CC5)n4)nc3N1C2	+++ (+++ is >60%)
CC1(C)C[C@H]2CCCn3ccc(n3)S(=O)(=O)NC(=O)c3ccc(-n4ccc(OCCC5C6(CC6)C56CC6)n4)nc3N1C2	+ (+ is <30%)
CC1(C)C[C@@H]2CCCn3ccc(n3)S(=O)(=O)NC(=O)c3ccc(-n4ccc(OCCC5C6(CC6)C56CC6)n4)nc3N1C2	+++ (+++ is >60%)
CC(C)(C)COc1ccn(-c2ccc3c(n2)N2C[C@H](CCNc4cccc(n4)S(=O)(=O)NC3=O)CC2(C)C)n1 (single isomer, unassigned) [Compound 2]	+++ (+++ is >60%)
CC1(C)CC2CN1c1nc(-n3ccc(OCCC4C5(CC5)C45CC5)n3)ccc1C(=O)NS(=O)(=O)c1cccc(n1)NCCO2 (racemic)	+++ (+++ is >60%)

Reported Max. Activity of Cc1nn2cc1S(=O)(=O)NC(=O)c1ccc(-n3ccc(OCCC4(C(F)(F)F)CC4)n3)nc1N1CC(CCCC2)CC1(C)C (stereo not drawn) : + (+ is <30%)

====

Target: CFTR-mediated chloride transport (Homo sapiens, UniProt P13569)
Sequence (P13569 whole entry, looked up): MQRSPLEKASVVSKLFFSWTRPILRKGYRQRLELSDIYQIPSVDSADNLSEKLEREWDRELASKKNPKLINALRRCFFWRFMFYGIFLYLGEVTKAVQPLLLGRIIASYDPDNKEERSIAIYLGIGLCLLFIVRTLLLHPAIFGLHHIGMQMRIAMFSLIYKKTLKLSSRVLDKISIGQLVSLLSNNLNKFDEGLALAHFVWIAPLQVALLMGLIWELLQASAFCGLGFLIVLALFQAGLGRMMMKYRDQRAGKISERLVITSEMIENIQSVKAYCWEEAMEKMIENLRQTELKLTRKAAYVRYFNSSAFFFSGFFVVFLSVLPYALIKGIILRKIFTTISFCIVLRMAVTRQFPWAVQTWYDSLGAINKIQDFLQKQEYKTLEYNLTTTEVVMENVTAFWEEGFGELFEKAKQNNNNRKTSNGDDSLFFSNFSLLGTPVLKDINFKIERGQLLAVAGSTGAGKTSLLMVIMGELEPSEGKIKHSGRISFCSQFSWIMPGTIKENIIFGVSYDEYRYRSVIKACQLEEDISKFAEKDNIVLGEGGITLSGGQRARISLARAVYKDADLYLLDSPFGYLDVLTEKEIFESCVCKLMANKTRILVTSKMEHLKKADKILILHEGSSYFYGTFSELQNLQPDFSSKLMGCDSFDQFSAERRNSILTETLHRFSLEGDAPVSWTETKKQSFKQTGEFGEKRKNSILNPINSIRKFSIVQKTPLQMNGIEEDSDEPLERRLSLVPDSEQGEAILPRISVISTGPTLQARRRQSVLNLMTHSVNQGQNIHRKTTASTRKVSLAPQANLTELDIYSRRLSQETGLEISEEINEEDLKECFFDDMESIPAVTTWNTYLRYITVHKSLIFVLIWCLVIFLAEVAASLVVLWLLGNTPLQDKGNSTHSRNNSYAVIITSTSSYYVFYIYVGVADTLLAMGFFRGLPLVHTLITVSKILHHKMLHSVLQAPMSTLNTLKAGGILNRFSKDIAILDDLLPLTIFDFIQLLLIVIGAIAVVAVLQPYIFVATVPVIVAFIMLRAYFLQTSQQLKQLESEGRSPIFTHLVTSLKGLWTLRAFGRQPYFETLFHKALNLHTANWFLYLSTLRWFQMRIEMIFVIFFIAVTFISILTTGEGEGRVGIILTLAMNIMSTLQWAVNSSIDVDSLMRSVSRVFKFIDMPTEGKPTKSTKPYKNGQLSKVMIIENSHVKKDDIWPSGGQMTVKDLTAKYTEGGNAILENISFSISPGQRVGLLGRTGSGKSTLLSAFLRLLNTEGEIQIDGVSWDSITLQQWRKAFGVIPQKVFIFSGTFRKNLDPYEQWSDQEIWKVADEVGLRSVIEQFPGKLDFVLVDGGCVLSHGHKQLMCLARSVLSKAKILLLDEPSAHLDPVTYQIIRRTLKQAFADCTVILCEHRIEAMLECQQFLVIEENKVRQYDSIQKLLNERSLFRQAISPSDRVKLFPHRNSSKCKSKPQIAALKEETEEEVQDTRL
Conditions: enteroid cells incubated with test compound 18-24 hours; acute 10 μM forskolin and 300 nM Compound III
Overview of recorded EC50 for various molecules

Reference set (5 entries):
MOLECULE	OBSERVED_RESULT
CC1(C)CC[C@H]2CCCOc3cccc(c3)S(=O)(=O)NC(=O)c3ccc(-n4ccc(OCCC5(C(F)(F)F)CC5)n4)nc3N21 (single isomer, unassigned) [Compound 7]	< 1000 nM
CC1(C)C[C@H]2CCCCOc3ccc(cn3)S(=O)(=O)NC(=O)c3ccc(-n4ccc(OCCC5(C(F)(F)F)CC5)n4)nc3N1C2 (single isomer, unassigned) [Compound 104]	> 3000 nM
Cc1c2cnn1CCCC1CN(c3nc(-n4ccc(OCC(C)(C)C(F)(F)F)n4)ccc3C(=O)NS2(=O)=O)C(C)(C)C1 (centres unmarked) [Compound 280]	< 1000 nM
[2H]C([2H])(COc1ccn(-c2ccc3c(n2)N2C[C@@H](CCCNc4cccc(n4)S(=O)(=O)NC3=O)CC2(C)C)n1)C([2H])([2H])C1(C(F)(F)F)CC1	< 1000 nM
CC1(C)C[C@@H]2CCCNc3cccc(n3)S(=O)(=O)NC(=O)c3ccc(N4CC[C@H](OCCC56CC7CC(CC(C7)C5)C6)C4=O)nc3N1C2 (single isomer, unassigned) [Compound 240]	< 1000 nM

Reported EC50 of Cc1ccc2nc1S(=O)(=O)NC(=O)c1ccc(-n3ccc(OCCC4(C(F)(F)F)CC4)n3)nc1N1CC(CCCN2)CC1(C)C (centres unmarked) : < 1000 nM

Reported EC50 of CC1(C)C[C@@H]2CCCNc3cccc(n3)S(=O)(=O)NC(=O)c3ccc(-n4ccc(OC[C@@H](O)CC5(C(F)(F)F)CC5)n4)nc3N1C2 (single isomer, unassigned) [Compound 284] : < 1000 nM

Reported EC50 of Cc1nn2cc1S(=O)(=O)NC(=O)c1ccc(-n3ccc(OCC(C)(C)C(F)(F)F)n3)nc1N1C[C@H](CCC2)CC1(C)C (single isomer, unassigned) [Compound 290] : > 3000 nM

Reported EC50 of CC1(C)C[C@H]2CCNc3cccc(n3)S(=O)(=O)NC(=O)c3ccc(-n4ccc(OCCC(C5CC5)C5CC5)n4)nc3N1C2 (single isomer, unassigned) [Compound 251] : < 1000 nM

Reported EC50 of CC1(C)CC2CCCCCc3ccc(nc3)S(=O)(=O)NC(=O)c3ccc(-n4ccc(OCCC5(C(F)(F)F)CC5)n4)nc3N1C2 (centres unmarked) : 1000 to 3000 nM

Reported EC50 of CC1(C)C[C@@H]2CCCNc3cccc(n3)S(=O)(=O)NC(=O)c3ccc(N4CC[C@H](OCCCC5(C(F)(F)F)CC5)C4=O)nc3N1C2 (single isomer, unassigned) [Compound 242] : < 1000 nM
